Target: T1, Human NKp30 (BKM0179) (human, UniProt O14931 19-135, limits assumed)
T1 sequence (looked up): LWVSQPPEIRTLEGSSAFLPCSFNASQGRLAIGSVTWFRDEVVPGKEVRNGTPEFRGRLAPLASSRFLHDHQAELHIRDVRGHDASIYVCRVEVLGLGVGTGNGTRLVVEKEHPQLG
Assay: SPR (BIAcore T200); human NKp30 BKM0179 captured on a CM5 chip via anti-mouse Fc, antibody construct injected at 3.9-125 nM; 1:1 model
recorded metric: Kd (nM)
API: value field is a number in nM; no unit string.

Problem: Item under review: BKM0145 (antibody, V domains shown, also called BJM0407 VH-N60A-VL-D92A-N95A) VH: EIQLLESGGGLVQPGGSLRLSCAVSGFSITTTGYHWNWVRQAPGKGLEWVGYIYSSGSTSYAPSLKSRFTISRDTSKNTFYLQMNSLRAEDTAVYYCARGDWHYFDYWGQGTMVTVSS VL: SSETTQPPSVSVSPGQTASITCSGEKLSDKYVHWYQQKPGQSPVMVIYENDRRPSGIPERFSGSNSGNTATLTISGTQAMDEADYFCQFWASTASAVFGGGTQLTVL . Reported Kd?
Result: 4.2

Problem: What measured Kd goes with BKM0142 (antibody, V domains shown, also called BJM0411 VH-N60A) VH: EIQLLESGGGLVQPGGSLRLSCAVSGFSITTTGYHWNWVRQAPGKGLEWVGYIYSSGSTSYAPSLKSRFTISRDTSKNTFYLQMNSLRAEDTAVYYCARGDWHYFDYWGQGTMVTVSS VL: DSVTTQSPLSLPVTLGQPASISCSGEKLSDKYVHWYQQRPGQSPRMLIYENDRRPSGVPDRFSGSNSGNDATLKISRVEAEDVGVYFCQFWDSTNSAVFGGGTKVEIK ?
Result: 1.28

Problem: Can you share its Kd? I mean this binder: BKM0138 (antibody, V domains shown, also called BJM0411 VL-N95A) VH: EIQLLESGGGLVQPGGSLRLSCAVSGFSITTTGYHWNWVRQAPGKGLEWVGYIYSSGSTSYNPSLKSRFTISRDTSKNTFYLQMNSLRAEDTAVYYCARGDWHYFDYWGQGTMVTVSS VL: DSVTTQSPLSLPVTLGQPASISCSGEKLSDKYVHWYQQRPGQSPRMLIYENDRRPSGVPDRFSGSNSGNDATLKISRVEAEDVGVYFCQFWDSTASAVFGGGTKVEIK
Result: 3.2

Problem: Fill in: Kd of BKM0143 (antibody, V domains shown, also called BJM0407 VH-N60A) VH: EIQLLESGGGLVQPGGSLRLSCAVSGFSITTTGYHWNWVRQAPGKGLEWVGYIYSSGSTSYAPSLKSRFTISRDTSKNTFYLQMNSLRAEDTAVYYCARGDWHYFDYWGQGTMVTVSS VL: SSETTQPPSVSVSPGQTASITCSGEKLSDKYVHWYQQKPGQSPVMVIYENDRRPSGIPERFSGSNSGNTATLTISGTQAMDEADYFCQFWDSTNSAVFGGGTQLTVL is ___
Result: 1.45

Problem: Record request: Kd value, item BKM0140 (antibody, V domains shown, also called BJM0407 VL-D92A) VH: EIQLLESGGGLVQPGGSLRLSCAVSGFSITTTGYHWNWVRQAPGKGLEWVGYIYSSGSTSYNPSLKSRFTISRDTSKNTFYLQMNSLRAEDTAVYYCARGDWHYFDYWGQGTMVTVSS VL: SSETTQPPSVSVSPGQTASITCSGEKLSDKYVHWYQQKPGQSPVMVIYENDRRPSGIPERFSGSNSGNTATLTISGTQAMDEADYFCQFWASTNSAVFGGGTQLTVL
Result: 3.3

Problem: Fill in the blank: the reported Kd of BKM0139 (antibody, V domains shown, also called BJM0411 VL-D92A) VH: EIQLLESGGGLVQPGGSLRLSCAVSGFSITTTGYHWNWVRQAPGKGLEWVGYIYSSGSTSYNPSLKSRFTISRDTSKNTFYLQMNSLRAEDTAVYYCARGDWHYFDYWGQGTMVTVSS VL: DSVTTQSPLSLPVTLGQPASISCSGEKLSDKYVHWYQQRPGQSPRMLIYENDRRPSGVPDRFSGSNSGNDATLKISRVEAEDVGVYFCQFWASTNSAVFGGGTKVEIK is ____.
Result: 3.2

Problem: For the binder BKM0141 (antibody, V domains shown, also called BJM0407 VL-N95A) VH: EIQLLESGGGLVQPGGSLRLSCAVSGFSITTTGYHWNWVRQAPGKGLEWVGYIYSSGSTSYNPSLKSRFTISRDTSKNTFYLQMNSLRAEDTAVYYCARGDWHYFDYWGQGTMVTVSS VL: SSETTQPPSVSVSPGQTASITCSGEKLSDKYVHWYQQKPGQSPVMVIYENDRRPSGIPERFSGSNSGNTATLTISGTQAMDEADYFCQFWDSTASAVFGGGTQLTVL , what Kd is on record?
Result: 3

Problem: Return reported Kd; argument: BKM0144 (antibody, V domains shown, also called BJM0411 VH-N60A-VL-D92A-N95A) VH: EIQLLESGGGLVQPGGSLRLSCAVSGFSITTTGYHWNWVRQAPGKGLEWVGYIYSSGSTSYAPSLKSRFTISRDTSKNTFYLQMNSLRAEDTAVYYCARGDWHYFDYWGQGTMVTVSS VL: DSVTTQSPLSLPVTLGQPASISCSGEKLSDKYVHWYQQRPGQSPRMLIYENDRRPSGVPDRFSGSNSGNDATLKISRVEAEDVGVYFCQFWASTASAVFGGGTKVEIK
Result: 6.4
